Reported IC50 values follow for various molecules
target: Chymotrypsin-like elastase family member 2A (Sus scrofa, UniProt P08419); test: ChEBML_152310
Sequence (P08419 whole entry): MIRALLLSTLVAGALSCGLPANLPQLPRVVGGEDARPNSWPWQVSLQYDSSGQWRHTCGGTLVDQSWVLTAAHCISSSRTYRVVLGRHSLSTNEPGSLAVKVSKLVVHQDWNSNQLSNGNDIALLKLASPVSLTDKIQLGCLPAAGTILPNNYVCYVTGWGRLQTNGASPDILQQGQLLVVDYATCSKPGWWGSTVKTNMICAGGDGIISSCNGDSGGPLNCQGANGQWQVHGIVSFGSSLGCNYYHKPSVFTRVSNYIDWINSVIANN
Output spec: scalar in µM, unitless text.

>  <record-smiles>
CC(C)C[C@H]1C(=O)N(Cc2ccccc2)CCN1S(C)(=O)=O

>  <system-name>
Chymotrypsin-like elastase family member 2A (Sus scrofa, UniProt P08419)

>  <IC50 / µM>
2000

$$$$

CC(C)C[C@H]1C(=O)N(S(C)(=O)=O)CCN1C(=O)OC(C)(C)C has a reported IC50 of 923
